The measurements presented in this section are drawn from ChEMBL document CHEMBL3039007.

Target: Solute carrier organic anion transporter family member 1B3 (Homo sapiens, UniProt Q9NPD5)
Sequence (Q9NPD5 whole entry): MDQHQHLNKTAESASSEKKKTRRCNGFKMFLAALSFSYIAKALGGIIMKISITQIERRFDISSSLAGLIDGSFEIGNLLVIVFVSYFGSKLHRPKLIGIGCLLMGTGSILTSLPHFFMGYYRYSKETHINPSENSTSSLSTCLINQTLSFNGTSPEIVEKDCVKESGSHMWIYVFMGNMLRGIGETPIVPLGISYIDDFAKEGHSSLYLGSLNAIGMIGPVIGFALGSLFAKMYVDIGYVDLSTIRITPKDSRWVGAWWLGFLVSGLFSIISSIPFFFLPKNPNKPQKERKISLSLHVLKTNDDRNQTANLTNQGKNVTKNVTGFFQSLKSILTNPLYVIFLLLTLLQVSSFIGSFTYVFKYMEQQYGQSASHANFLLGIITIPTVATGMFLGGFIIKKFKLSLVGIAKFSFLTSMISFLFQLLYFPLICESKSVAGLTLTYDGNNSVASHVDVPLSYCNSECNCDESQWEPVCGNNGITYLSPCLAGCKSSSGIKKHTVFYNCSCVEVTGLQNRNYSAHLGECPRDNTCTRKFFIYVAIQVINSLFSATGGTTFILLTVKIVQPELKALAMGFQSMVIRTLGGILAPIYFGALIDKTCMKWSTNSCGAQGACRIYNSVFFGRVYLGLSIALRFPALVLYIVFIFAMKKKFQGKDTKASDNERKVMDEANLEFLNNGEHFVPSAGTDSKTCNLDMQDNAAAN
Settings: chinese hamster, cho, 10 µM
Parameter: residual activity. Scope: all listed entries.
Include the unit after the number when you answer.

# compound, tested-on, residual activity
measured = [
    ("COc1cc(O)c2c(=O)cc(C)oc2c1CC=C(C)C", "Solute carrier organic anion transporter family member 1B3 (Homo sapiens, UniProt Q9NPD5)", "110.3%"),
    ("Cn1c(=O)c2c(ncn2CCCl)n(C)c1=O", "Solute carrier organic anion transporter family member 1B3 (Homo sapiens, UniProt Q9NPD5)", "97.15%"),
    ("CC(=O)[C@@]1(O)CC[C@H]2[C@@H]3C=C(Cl)C4=CC(=O)[C@@H]5C[C@@H]5[C@]4(C)[C@H]3CC[C@@]21C", "Solute carrier organic anion transporter family member 1B3 (Homo sapiens, UniProt Q9NPD5)", "112.2%"),
    ("NCCc1c[nH]c2ccccc12", "Solute carrier organic anion transporter family member 1B3 (Homo sapiens, UniProt Q9NPD5)", "104.1%"),
]

(Q) # input compound: `CCN(CC)C(=S)SSC(=S)N(CC)CC` ; wanted: its residual activity
(A) 64.06%

(Q) # input compound: `O=C(Cn1ccnc1[N+](=O)[O-])NCCO` ; wanted: its residual activity
(A) 76.09%

(Q) # input compound: `COc1cc(O)c2c(=O)cc(-c3ccc(O)cc3)oc2c1` ; wanted: its residual activity
(A) 107%

(Q) # input compound: `CNC(=O)ON=C(C)SC` ; wanted: its residual activity
(A) 109.3%

(Q) # input compound: CC(C)(Oc1ccc(CCNC(=O)c2ccc(Cl)cc2)cc1)C(=O)O [BEZAFIBRATE] ; wanted: its residual activity
(A) 74.47%

###

Target: Solute carrier organic anion transporter family member 1B1 (Homo sapiens, UniProt Q9Y6L6)
Sequence (Q9Y6L6 whole entry): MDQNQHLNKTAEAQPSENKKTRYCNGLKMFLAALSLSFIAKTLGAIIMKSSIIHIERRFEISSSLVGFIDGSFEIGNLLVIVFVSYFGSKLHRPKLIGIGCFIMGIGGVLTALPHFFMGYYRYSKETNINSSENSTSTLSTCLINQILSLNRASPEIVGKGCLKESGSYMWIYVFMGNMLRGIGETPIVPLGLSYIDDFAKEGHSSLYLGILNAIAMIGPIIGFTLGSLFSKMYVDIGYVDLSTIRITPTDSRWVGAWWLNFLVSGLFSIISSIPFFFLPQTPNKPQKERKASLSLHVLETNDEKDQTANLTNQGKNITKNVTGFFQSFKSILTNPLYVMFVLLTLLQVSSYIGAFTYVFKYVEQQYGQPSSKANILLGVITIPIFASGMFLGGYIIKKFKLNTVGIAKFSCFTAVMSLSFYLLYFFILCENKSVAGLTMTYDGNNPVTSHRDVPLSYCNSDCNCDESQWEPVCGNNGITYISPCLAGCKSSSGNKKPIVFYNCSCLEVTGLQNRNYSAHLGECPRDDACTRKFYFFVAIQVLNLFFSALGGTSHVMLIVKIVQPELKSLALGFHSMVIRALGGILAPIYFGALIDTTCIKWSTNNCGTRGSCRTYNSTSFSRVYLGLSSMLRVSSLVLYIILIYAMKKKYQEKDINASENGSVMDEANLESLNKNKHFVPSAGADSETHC
observed-property: Ki (nM)
Report only the number, with the unit nM understood.

Below are worked cases with known answers.
# compound, observed-property, output-unit, quantitative-result
rows = [
    ("CC(C)CCCC1(C)C=Cc2c(O)c3c(c(CCC(C)C)c2O1)OC12C(CC4CC1C(C)(C)OC2(CCC(C)C(=O)O)C4O)C3=O (stereo not drawn) [DECAHYDROGAMBOGIC ACID]", "Ki", "nM", 620),
    ("COC(=O)CC[C@@H](C)[C@H]1CC[C@H]2[C@@H]3[C@H](O)C[C@@H]4C[C@H](O)CC[C@]4(C)[C@H]3C[C@H](O)[C@]12C", "Ki", "nM", 4580),
]

Please turn your attention to the following entry.
(Q) # input compound: `CCCc1nc2c(C)cc(-c3nc4ccccc4n3C)cc2n1Cc1ccc(-c2ccccc2C(=O)O)cc1` ; wanted: its Ki
(A) 1030
